molecular target: Rap guanine nucleotide exchange factor 3 (Homo sapiens) (UniProt O95398); assay: Counterscreen qHTS for agonist of cAMP-regulated guanine nucleotide exchange factor 3 (EPAC1) (AID 1645889); settings: EPAC1 Rap1B-BODIPY-GDP exchange, fluorescence; series mostly up to 154 µM; also: % of control where 0% means no effect; nearly all actives have a fitted effect of over 40% in size
Results filed as inconclusive are left out. Calls of active or inactive are those of the source. Calls follow the shape of the dose curve; as a rule, active = well fitted activation curve with a large enough effect; inconclusive = small, poorly fitted or top-dose-only effect, or another doubt; inactive = no such curve, though single readings can be large or run the other way.
measurement-type: activation

# count of solved cases: 8
O=C(NS(=O)(=O)c1ccc2ccc(S(=O)(=O)NCCSc3ccccc3)cc2c1)c1cccc2ccccc12
inactive
CCOc1c(OC)cccc1C1CC(=O)Nc2cc3c(cc21)OCCO3 (stereo unspecified)
inactive
Cn1c(Cc2cccs2)nnc1SCc1nc2ccccc2[nH]1
30.7% [at 30.8 µM] (inactive)
CCCS(=O)(=O)N1CCC(C(=O)NCCN2CCCC2)CC1
25.6% [at 30.8 µM] (inactive)
Cc1cc(C)c2c(CN3CCCCC3)cc(=O)oc2c1
inactive
Cc1nn(CCc2nc(-c3ccco3)cs2)c2[nH]c(=O)cc(C(F)(F)F)c12
inactive
CC(C)c1c(Cl)c(O)c(-c2ccccc2)c(=O)n1-c1ccc(F)cc1
inactive
Oc1ccc(NCc2cccs2)cc1
21.5% [at 30.8 µM] (inactive)

Enter activation (test system Rap guanine nucleotide exchange factor 3 (Homo sapiens) (UniProt O95398)) for `CS/C(N)=N/N=C/c1c(O)ccc2ccccc12`
inactive

Look up and report measured activation (Rap guanine nucleotide exchange factor 3 (Homo sapiens) (UniProt O95398)) for the following compound: COCOCCn1cc(CN2CCS(=O)(=O)N(Cc3ccc(-c4ccc(Cl)cc4)cc3)C(CC(C)C)C2=O)nn1 (stereo unspecified)
inactive

Fill in activation for `Cc1nn(CCc2nn[nH]n2)c2nc(-c3ccc(C4CCCCC4)cc3)cc(C(F)(F)F)c12` tested with Rap guanine nucleotide exchange factor 3 (Homo sapiens) (UniProt O95398).
inactive

Source listed as PubChem BioAssay (NCATS).
